System Under Test: Histone-lysine N-methyltransferase EZH2 (Homo sapiens, UniProt Q15910)
Sequence (Q15910 whole entry, looked up): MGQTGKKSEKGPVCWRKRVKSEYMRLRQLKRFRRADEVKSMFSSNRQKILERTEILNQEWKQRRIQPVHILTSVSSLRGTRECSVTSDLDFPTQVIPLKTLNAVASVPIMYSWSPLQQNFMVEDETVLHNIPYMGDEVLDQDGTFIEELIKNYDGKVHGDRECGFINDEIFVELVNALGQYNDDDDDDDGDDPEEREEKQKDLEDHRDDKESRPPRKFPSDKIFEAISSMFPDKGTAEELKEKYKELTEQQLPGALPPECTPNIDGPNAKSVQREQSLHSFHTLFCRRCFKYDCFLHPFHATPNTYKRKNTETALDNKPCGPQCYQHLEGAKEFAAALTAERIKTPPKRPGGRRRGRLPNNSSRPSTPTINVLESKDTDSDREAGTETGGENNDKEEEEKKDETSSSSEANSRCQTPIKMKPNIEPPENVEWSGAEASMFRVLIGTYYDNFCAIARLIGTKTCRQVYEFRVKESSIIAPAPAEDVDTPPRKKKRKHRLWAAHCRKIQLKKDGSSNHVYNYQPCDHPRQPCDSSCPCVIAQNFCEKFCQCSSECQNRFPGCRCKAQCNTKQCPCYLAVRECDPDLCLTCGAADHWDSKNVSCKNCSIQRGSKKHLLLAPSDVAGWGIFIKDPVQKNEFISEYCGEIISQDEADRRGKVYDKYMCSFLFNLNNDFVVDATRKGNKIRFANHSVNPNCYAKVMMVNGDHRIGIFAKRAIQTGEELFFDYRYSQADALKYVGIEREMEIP
Protocol Description: Inhibition of PRC2 EZH2 sub unit (unknown origin) assessed as inhibition of SAM-mediated methyl transfer process at 50 uM preincubated for 15 mins followed by addition of H3K27me and [3H]SAM as substrate measured after 90 mins by radioactive methylation assay
Quantity Kind: inhibition
Mention the unit after the number when you answer.

For record Cc1ccc2c(c1)C1CN(C)CCC1N2C(=O)c1ccc2ccccc2c1 (stereo unspecified) the listed inhibition is 0%

For record Cc1ccc2c(c1)C1CN(C)CCC1N2C(=O)Cc1ccc(Cl)cc1 (stereo unspecified) the listed inhibition is 4%

For record Cc1ccc(-n2nc3cc(C)c(NC(=O)NC(=O)Cc4ccccc4)cc3n2)cc1 the listed inhibition is 0%

For record Cc1ccc2nc(Nc3nc(O)cc(CSc4nnnn4-c4ccccc4)n3)nc(C)c2c1 the listed inhibition is 28%

For record O=C1CC(=C2c3ccccc3-c3ccccc32)C(=O)N1CCN1CCN(c2cccc(Cl)c2)CC1 the listed inhibition is 29%

For record COc1ccc2nc(Nc3nc(O)cc(CSc4nnc(C)s4)n3)nc(C)c2c1 the listed inhibition is -9%

For record Cc1cc(C)nc(Nc2n[nH]c(-c3ccccc3Cl)n2)n1 the listed inhibition is 17%

For record CN1c2ccccc2Oc2nnc(N3CCN(C(c4ccccc4)c4ccccc4)CC3)cc21 the listed inhibition is -7%

For record CC1=CC(C)(C)Oc2c1c(=O)n(-c1ccccc1)c(=S)n2-c1ccc(C)cc1 the listed inhibition is 4%

For record O=C(c1cnn2c1NC(c1ccc(Br)cc1)CC2C(F)(F)F)N1CCN2CCCC2C1 (stereo unspecified) the listed inhibition is -2%

For record O=C1C(Cc2ccccc2)=C(O)c2cccc3c2C1=C(O)CC3 the listed inhibition is 11%

For record COc1ccc(C(=O)C(OC(=O)c2ccc(C)c(NC(C)=O)c2)c2ccccc2)cc1 (stereo unspecified) the listed inhibition is 9%

For record N#C/C(=C/c1ccc(-c2ccc(C(N)=O)cc2)o1)c1nc2ccccc2[nH]1 the listed inhibition is 41%

For record NS(=O)(=O)c1ccc(NC(=O)CN2C(=O)c3cccc4cccc(c34)C2=O)cc1 the listed inhibition is 14%

For record COc1ccc(-n2c(SCC(=O)c3ccc(Cl)cc3)nc3ccccc3c2=O)cc1 the listed inhibition is 5%

For record Cc1ccc2c(C)nc(Nc3nc(O)cc(CSc4nnnn4-c4ccccc4)n3)nc2c1 the listed inhibition is 19%

For record O=c1c(-c2ccccc2)c(O)c2c(n1-c1ccccc1)CCCC2 the listed inhibition is -2%

For record N/N=C1/CCCc2c1[nH]c1ccc(F)cc21 the listed inhibition is 18%

For record NC(=O)c1ccc(N=C2C(=O)Nc3ccc([N+](=O)[O-])cc32)cc1 the listed inhibition is 6%

For record O=C(/C(=C(/[O-])c1ccc(Cl)cc1)[n+]1ccc2ccccc2c1)c1ccccc1 the listed inhibition is 2%

For record Cc1ccc(C(=O)CSc2nc3sc4c(c3c(=O)n2-c2ccccc2)CCCC4)s1 the listed inhibition is -1%
